# test details: yeast display, Sf9 membrane polyspecificity reagent, FACS + sequencing; frameworks hold sequencing errors
metric: polyreactivity (PSR sort gate)

sequence entry	result
QVQLVESGGGLVQAGGSLRLSCAASGSISYRYDMGWYRQSPGKERELVATIRSGGSTNYADSVKGRFTISRDNAKNTVYLQMNSLKPEDTAVYYCAARLYARKKLHFSADSDYWGQGSQVTVSS	low polyreactivity
QVQLVESGGGLVQAGGSLRLSCAASGRILKYYDMGWYRQAPGKERELVAAISVSGTSTYYADSVKGRFTISRDNAKNTVYLQMNSLKPEDTAVYYCATATGRYSFDYWGQGTQVTVSS	low polyreactivity
QVQLVESGGGLVQAGGSLRLSCAATGSIFQGNVMGWYRPAPGKERELVAGISSSGGRTYYADSVKGRFTISRDNAKNTVYLQMNSLIPEDTAVYYCNAVPSNRQLDYDYWGQGTLVTVSS	high polyreactivity
QVQLEESGGGLVQAGGSLRLSCAASGSIFYDYAMGWYRQAPGKERELVAAISKSDGSTYYADSVKGRFTISRDNAKNTVYLQMNSLKPEDTAVYYCNADLIYSYPPEYDYWGQGTQVTVSS	high polyreactivity
QVQLVESGGGLVQAGGSLRLSCAASGLTFWFNAMGWYRPAPGKERALVGAIRNRGGSTYYADSVKGRFTISRDTAKNTVYLQMNSLKPEDTAVYYCAAVSWFLVGPRYYYWGQGTQVTVSS	high polyreactivity

Values were extracted from the nanobody polyreactivity screen of Harvey et al. (2022).
